# Tested on: β1-adrenergic receptor
# methodNotes: β1 blocking activity (inhibition of Isoproterenol-induced increase in heart rate)
# Assay type: in vivo, mongrel dogs
# measurementContext: Table 6; dogs, test compound 0.1 mg/kg; 0.5 μg/kg Isoproterenol i.v.
Structures can show the parent of a compound that is named as a salt.
metric: β1 blocking activity, percentage inhibition (%)

1. CC(CCc1ccccc1)NCC(O)COc1cccc(CC(N)=O)c1 (stereo not drawn) | -9
2. CC(CCc1ccccc1)NCC(O)COc1ccccc1C(N)=O (stereo not drawn) | -57
3. CCOC(=O)Cc1ccc(C(O)CNC(C)CCc2ccccc2)cc1 (stereo not drawn) | -10
4. CC(CCc1ccccc1)NCC(O)c1ccc(O)c(C(N)=O)c1 (stereo not drawn) [Reference compound, hydrochloride, reference compound] | -69
5. COC(=O)c1ccccc1OCC(O)CNC(C)CCc1ccccc1 (stereo not drawn) | -30
6. CCOC(=O)Cc1ccc(OCC(O)CNC(C)CCc2ccccc2)cc1 (stereo not drawn) | -11
7. COc1ccc(OCC(C)NCC(O)COc2ccccc2C#N)cc1 (stereo not drawn) | -54
8. COc1ccc(OCC(C)NCC(O)COc2ccc(NC(C)=O)cc2)cc1 (stereo not drawn) | -52
9. CC(CCc1ccccc1)NCC(O)COc1ccc(CC(=O)NN)cc1 (stereo not drawn) | -3
10. CCOC(=O)Cc1cccc(OCC(O)CNC(C)CCc2ccccc2)c1 (stereo not drawn) | -7
11. CC(CCc1ccccc1)NCC(O)c1ccc(CC(N)=O)cc1 (stereo not drawn) | -8
12. Cc1cccc(OCC(O)CNC(C)CCc2ccccc2)c1C (stereo not drawn) | -73
13. COc1ccc(OCC(C)NCC(O)COc2ccc(CC(N)=O)cc2)cc1 (stereo not drawn) | -55
14. CCOC(=O)Cc1ccc(OCC(O)CNC(C)COc2ccc(OC)cc2)cc1 (stereo not drawn) | -11

* * *

# System: main artery of the dogs' organ
# methodNotes: Effect on organ blood flow;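 note: percent change relative to blood flow before compound administration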
# Assay type: in vivo, mongrel dogs
# measurementContext: Canis lupus familiaris, iv, Table 7, femoral vein, read-out: Organ blood flow, Crotch (percentage change)
Entries and their change in vivo at 1 mg/kg
metric: change in vivo at 1 mg/kg

1. Cc1cccc(OCC(O)CNCCN(Cc2ccccc2)C(C)COc2ccccc2)c1 (centres unmarked) [Compound 29] | -45%
2. CCCC(=O)Nc1ccc(OCC(O)CNCCN(Cc2ccccc2)C(C)COc2ccccc2)c(C(C)=O)c1 (centres unmarked) [Compound 28] | 4%
3. CC(=O)Nc1ccc(OCC(O)CNCCN(Cc2ccccc2)C(C)COc2ccccc2)cc1 (centres unmarked) [Compound 27] | 3%
4. CC(COc1ccccc1)N(CCNCC(O)COc1ccc(CC(N)=O)cc1)Cc1ccccc1 (centres unmarked) [Compound 30] | -19%
5. CCOC(=O)Cc1ccc(OCC(O)CNCCN(Cc2ccccc2)C(C)COc2ccccc2)cc1 (centres unmarked) [Compound 26] | -12%

* * *

# methodNotes: in vivo
# measurementContext: mouse, Table 6, oral, male dd-strain mice
metric: LD50

1) CC(CCc1ccccc1)NCC(O)COc1ccc(CC(=O)NN)cc1 (centres unmarked) | > 1000 mg/kg
2) CC(CCc1ccccc1)NCC(O)COc1ccc(CC(=O)O)cc1 (centres unmarked) | > 1000 mg/kg
3) CCOC(=O)Cc1ccc(OCC(O)CNC(C)COc2ccc(OC)cc2)cc1 (centres unmarked) | > 1000 mg/kg
4) CC(CCc1ccccc1)NCC(O)COc1ccccc1C(N)=O (centres unmarked) | 250 to 500 mg/kg
5) CC(CCc1ccccc1)NCC(O)COc1ccc(CC(N)=O)cc1 (centres unmarked) | > 1000 mg/kg
